tgt: Cholinesterase (Equus caballus)
test method notes: Inhibition of equine serum BChE at 20 uM by Ellman's method relative to control
Type: cell-free
The source made the active and inactive calls. The rule behind the calls is not given here.
readout label: inhibition

# annotated cases, reported inhibition shown
COc1cc(-c2nc3ccc(NCC4CCN(Cc5ccccc5)CC4)cc3c(=O)[nH]2)cc(OC)c1OC    68.6%
CN1CCN(c2ccc(-c3nc4ccc(Br)cc4c(=O)[nH]3)cc2)CC1    31.2%
COc1cc(OC)c2c(=O)[nH]c(-c3cn(Cc4ccccc4)cn3)nc2c1    95%
COc1cc(-c2nc3ccc(NC(=O)c4ccc(Cl)cc4)cc3c(=O)[nH]2)cc(OC)c1OC    14.9%
COc1cc(-c2nc3ccc(NC(=O)c4ccc(F)cc4)cc3c(=O)[nH]2)cc(OC)c1OC    12.7%

Tell me the measured inhibition of COc1cc(-c2nc3ccc(NC(=O)CN4CCCCC4)cc3c(=O)[nH]2)cc(OC)c1OC , please.
inactive

Please do the same for COc1cc(-c2nc3ccc(NC(=O)c4ccc(Br)cc4)cc3c(=O)[nH]2)cc(OC)c1OC as well.
8.3%

Cool, now CCN(CC)c1ccc(-c2nc3cc(OC)cc(OC)c3c(=O)[nH]2)cc1
inactive

Would you mind doing COc1cc(-c2nc3ccc(NC(=O)CCl)cc3c(=O)[nH]2)cc(OC)c1OC as well?
9.51%

Same question for COc1cc(OC)c2c(=O)[nH]c(-c3c[nH]c4ccccc34)nc2c1 please.
8.91%

Entry O=c1[nH]c(C2CCN(Cc3ccccc3)CC2)nc2ccc([N+](=O)[O-])cc12 please
inactive

Would you mind doing COc1cc(OC)c2c(=O)[nH]c(-c3ccc(N4CCN(CCO)CC4)cc3)nc2c1 as well?
3.32%

Let us now turn to COc1cc(OC)c2c(=O)[nH]c(-c3ccc(N4CCN(C(=O)OC(C)(C)C)CC4)cc3)nc2c1
inactive

Query CN1CCN(c2ccc(-c3nc4ccc([N+](=O)[O-])cc4c(=O)[nH]3)cc2)CC1 next
63.7%

Record: COc1cc(OC)c2c(=O)[nH]c(C(=O)c3ccc(O)cc3)nc2c1
inactive

And COc1cc(-c2nc3ccc([N+](=O)[O-])cc3c(=O)[nH]2)cc(OC)c1OC ?
inactive

====

tgt: Cholinesterase (Equus caballus) (UniProt P81908)
Sequence (P81908 whole entry): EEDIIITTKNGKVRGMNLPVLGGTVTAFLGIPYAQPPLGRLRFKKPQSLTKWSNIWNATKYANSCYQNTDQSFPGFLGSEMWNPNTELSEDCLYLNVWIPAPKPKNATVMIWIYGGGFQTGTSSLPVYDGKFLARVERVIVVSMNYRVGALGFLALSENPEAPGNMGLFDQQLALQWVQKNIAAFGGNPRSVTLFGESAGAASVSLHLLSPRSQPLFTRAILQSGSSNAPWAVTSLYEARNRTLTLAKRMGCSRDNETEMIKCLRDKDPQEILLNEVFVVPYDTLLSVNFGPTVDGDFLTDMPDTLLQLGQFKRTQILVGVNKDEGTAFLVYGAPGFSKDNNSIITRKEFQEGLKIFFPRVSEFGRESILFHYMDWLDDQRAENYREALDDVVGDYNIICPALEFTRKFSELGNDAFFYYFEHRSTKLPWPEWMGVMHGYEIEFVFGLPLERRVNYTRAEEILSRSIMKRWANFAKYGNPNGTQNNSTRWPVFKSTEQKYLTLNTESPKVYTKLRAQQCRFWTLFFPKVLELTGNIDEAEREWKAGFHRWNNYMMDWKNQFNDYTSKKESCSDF
test method notes: Inhibition of equine serum BChE at 20 uM by Ellman's method relative to control
Format: cell-free
Calls of active or inactive are those of the source. No cut-off for these calls is given here.
readout label: inhibition

COc1cc(OC)c2c(=O)[nH]c(C3CCN(Cc4ccccc4)CC3)nc2c1    59.1%
COc1cc(OC)c2c(=O)[nH]c(-c3ccc(N4CCOCC4)cc3)nc2c1    16.5%
COc1cc(-c2nc3ccc(NC(=O)CCN4CCN(C)CC4)cc3c(=O)[nH]2)cc(OC)c1OC    inactive
COc1cc(OC)c2c(=O)[nH]c(-c3ccc(O[C@@H]4O[C@H](CO)[C@@H](O)[C@@H](O)[C@H]4O)cc3)nc2c1    11.3%
COc1cc(-c2nc3ccc(NC(=O)CCN4CCCCC4)cc3c(=O)[nH]2)cc(OC)c1OC    14.6%

Lab note: next molecule to report on.
Checklist item: inhibition tested on Cholinesterase (Equus caballus) (UniProt P81908), entry COc1cc(-c2nc3ccc(NC(=O)CCN4CCC(O)CC4)cc3c(=O)[nH]2)cc(OC)c1OC , value?
15.8%
